pIC50 by entry:
Test system: washed human platelets
Test: Aggregation of washed human platelets (stimulus 1 μM U46619)
Type: cell-based
Details: Platelet; aspirin-treated washed human platelets; compound added 2 min before 1 μM U46619; assessed 4 min after stimulus; 37° C.
pIC50: −log10 of the molar value.
quantity: pIC50

>>> number("O=c1n(CCCCCCCP(=O)(O)O)c(-c2ccccc2)c(-c2ccccc2)n1-c1ccccc1")
4.37
>>> number("CCOP(C)(=O)CCCCCCCn1c(-c2ccccc2)c(-c2ccccc2)n(-c2ccccc2)c1=O (stereo not shown)")
4.68
>>> number("CCOP(=O)(CCCCCCCn1c(-c2ccccc2)c(-c2ccccc2)n(-c2ccccc2)c1=O)OCC")
5.26
>>> number("O=c1n(CCCCCCCS(=O)(=O)O)c(-c2ccccc2)c(-c2ccccc2)n1-c1ccccc1")
6.60
